meta.source: patent US20060116400A1

# maps each entry to its melting point
Give the value in °C but do not write °C after it.

COCCC(=O)OC[C@@H](O)[C@@H]1CC(c2ccc(-c3ccc(N4C[C@H](Cn5ccnn5)OC4=O)cc3F)cn2)=NO1 :: 130
O=C1O[C@@H](Cn2ccnn2)CN1c1ccc(-c2ccc(C3=NOC(C4(O)CCCC4)C3)nc2)c(F)c1 (stereo partly shown) :: 225

Q) Param item = O=C1O[C@@H](Cn2ccnn2)CN1c1ccc(-c2ccc(C3=NOC(C(O)c4ccccc4)C3)nc2)c(F)c1 (single isomer, unassigned) ; retrieve measured melting point.
A) 182

###

# maps each entry to its melting point
Give the value in °C but do not write °C after it.

CCN(CC)CCC(=O)OC[C@@H]1CC(c2ccc(-c3ccc(N4C[C@H](Cn5ccnn5)OC4=O)cc3F)cn2)=NO1 [Example 43] :: 167
CC(C)C(OC(=O)Cc1ccc2ccccc2c1)C1CC(c2ccc(-c3ccc(N4C[C@H](Cn5ccnn5)OC4=O)cc3F)cn2)=NO1 (single isomer, unassigned) [Example 30] :: 85
COCCOC(=O)OC[C@@H](O)[C@@H]1CC(c2ccc(-c3ccc(N4C[C@H](Cn5ccnn5)OC4=O)cc3F)cn2)=NO1 [Example 58] :: 125
O=C1O[C@@H](Cn2ccnn2)CN1c1ccc(-c2ccc(C3=NOC(CS(=O)(=O)CCO)C3)nc2)c(F)c1 (stereo partly drawn) [Example 25] :: 210

# context switch: different molecule, same melting point
Q) Param item = CC(C)(O)C1CC(c2ccc(-c3ccc(N4C[C@H](Cn5ccnn5)OC4=O)cc3F)cn2)=NO1 (stereo partly drawn) [Example 15] ; retrieve measured melting point.
A) 197

###

# maps each entry to its melting point
Give the value in °C but do not write °C after it.

Q) Param item = O=C1O[C@@H](Cn2ccnn2)CN1c1ccc(-c2ccc(C3=NO[C@H](CSCCO)C3)nc2)c(F)c1 [Example 60] ; retrieve measured melting point.
A) 162

Q) Param item = O=C1O[C@@H](Cn2ccnn2)CN1c1ccc(-c2ccc(C3=NOC(CS(=O)(=O)CCc4ccncc4)C3)nc2)c(F)c1 (stereo partly drawn) [Example 35] ; retrieve measured melting point.
A) 195

###

experimental-readout: melting point (°C)
Give the value in °C but do not write °C after it.

Below are worked cases with known answers.
O=C1O[C@@H](Cn2ccnn2)CN1c1ccc(-c2ccc(C3=NO[C@H](COCC(F)(F)F)C3)nc2)c(F)c1 :: 199
CC(C)C(O)C1CC(c2ccc(-c3ccc(N4C[C@H](Cn5ccnn5)OC4=O)cc3F)cn2)=NO1 (single isomer, unassigned) :: 155
O=C(OC[C@@H](O)[C@@H]1CC(c2ccc(-c3ccc(N4C[C@H](Cn5ccnn5)OC4=O)cc3F)cn2)=NO1)c1cccnc1 :: 210

Q) Param item = "O=C1O[C@@H](Cn2ccnn2)CN1c1ccc(-c2ccc(C3=NO[C@H](COC(F)(F)F)C3)nc2)c(F)c1" ; retrieve measured melting point.
A) 185

###

- system: MAO-A (Homo sapiens, UniProt P21397)
- Sequence (P21397 1-527): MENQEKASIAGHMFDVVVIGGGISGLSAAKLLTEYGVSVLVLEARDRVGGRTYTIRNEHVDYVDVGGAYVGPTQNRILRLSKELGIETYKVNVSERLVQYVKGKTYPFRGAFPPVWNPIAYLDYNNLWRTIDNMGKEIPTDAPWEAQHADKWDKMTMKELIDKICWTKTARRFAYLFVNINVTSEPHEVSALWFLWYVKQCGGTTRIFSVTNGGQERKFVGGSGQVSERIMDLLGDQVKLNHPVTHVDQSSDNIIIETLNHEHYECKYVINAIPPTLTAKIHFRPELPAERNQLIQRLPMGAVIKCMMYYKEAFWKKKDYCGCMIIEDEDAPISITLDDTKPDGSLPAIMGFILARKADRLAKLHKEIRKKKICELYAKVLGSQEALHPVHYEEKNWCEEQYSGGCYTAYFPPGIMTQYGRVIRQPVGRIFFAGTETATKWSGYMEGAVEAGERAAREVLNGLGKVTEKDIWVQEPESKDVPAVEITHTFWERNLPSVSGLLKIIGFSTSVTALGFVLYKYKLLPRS
experimental-readout: pKi
# pKi: negative log10 of molar concentration; output just the value

O=C1O[C@@H](Cn2ccnn2)CN1c1ccc(-c2ccc(C3=NO[C@H]([C@@H](O)CO)C3)nc2)c(F)c1 [Example 53] :: 4.22

# context switch: different compound, same pKi
Q) Param item = O=C1O[C@@H](Cn2ccnn2)CN1c1ccc(-c2ccc(C3=NO[C@@H]([C@@H](O)CO)C3)nc2)c(F)c1 [Example 54] ; retrieve measured pKi.
A) 5.10

###

# maps each entry to its melting point
Give the value in °C but do not write °C after it.

Q) Param item = O=C1O[C@@H](Cn2ccnn2)CN1c1ccc(-c2ccc(C3=NOC(CNCCc4ccncc4)C3)nc2)c(F)c1 (stereo partly shown) ; retrieve measured melting point.
A) 181

Q) Param item = CN1CCC(O)(C2CC(c3ccc(-c4ccc(N5C[C@H](Cn6ccnn6)OC5=O)cc4F)cn3)=NO2)CC1 (stereo partly shown) ; retrieve measured melting point.
A) 73

Q) Param item = "COC[C@@H]1CC(c2ccc(-c3ccc(N4C[C@H](Cn5ccnn5)OC4=O)cc3F)cn2)=NO1" ; retrieve measured melting point.
A) 172
